This listing pairs compounds with measured pEC50.
- subject-of-test: GLP-1R (Homo sapiens, UniProt P43220)
- Construct: host or cells: CRE-bla CHO-K1
- Sequence (P43220 24-463): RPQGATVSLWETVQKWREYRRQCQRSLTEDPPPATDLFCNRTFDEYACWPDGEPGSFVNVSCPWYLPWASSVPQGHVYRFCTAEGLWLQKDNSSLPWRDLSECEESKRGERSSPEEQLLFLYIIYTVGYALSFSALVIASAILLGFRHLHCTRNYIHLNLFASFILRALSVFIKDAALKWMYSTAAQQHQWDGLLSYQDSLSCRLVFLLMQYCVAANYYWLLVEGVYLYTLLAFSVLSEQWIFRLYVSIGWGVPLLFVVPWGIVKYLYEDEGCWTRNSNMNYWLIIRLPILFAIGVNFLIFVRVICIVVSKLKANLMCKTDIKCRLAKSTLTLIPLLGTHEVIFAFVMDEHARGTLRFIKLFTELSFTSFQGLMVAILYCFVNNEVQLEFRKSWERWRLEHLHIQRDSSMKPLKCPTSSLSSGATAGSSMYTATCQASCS
- Sequence (P01275 100-127 partner limits assumed): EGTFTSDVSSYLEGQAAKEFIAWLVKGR
- test-description: EC20 GLP-1(9-36) PAM cAMP assay: dose response of compound in the presence of fixed concentration of GLP-1(9-36)
- Type: cell-based
- test-context: GLP-1R CRE-bla CHO-K1 cells, compound dose response in presence of fixed concentration of GLP-1(9-36)
pEC50: −log10 of the molar value.

Query CCCCCCCOc1ccc(-c2cnc(-c3ccc(C[C@H](NC(=O)c4ccc(C(C)(C)C)cc4)C(=O)NCCCC(=O)O)cc3)nc2)cc1 yields pEC50 of 5.60 to 6.10

Query CC(C)(C)c1ccc(-c2cnc(-c3ccc(C[C@H](NC(=O)c4nnc(C(C)(C)C)s4)C(=O)O)cc3)nc2)cc1 yields pEC50 of 5.00 to 5.30

Query Cc1ccc(-c2ccc(-c3nc(-c4ccc(C[C@H](NC(=O)c5ccc(C(C)(C)C)cc5)C(=O)O)cc4)no3)cc2)cc1 yields pEC50 of 5.00 to 5.30

Query CCCCCCCOc1ccc(-c2cnc(-c3ccc(C[C@H](NC(=O)c4ccc(C(C)(C)C)s4)C(=O)N4CCC[C@@H]4C(=O)O)cc3)nc2)cc1 yields pEC50 of 5.60 to 6.10

Query CCCCCCCOc1ccc(-c2cnc(-c3ccc(C[C@H](NC(=O)c4ccc(C(C)C)cc4)C(=O)N[C@@H](CO)C(=O)O)cc3)nc2)cc1 yields pEC50 of > 6.10

Query CCCCCCCOc1ccc(N2CCN(c3ccc(C[C@H](NC(=O)c4ccc(C(C)(C)C)s4)C(=O)O)cc3)C2=O)cc1 yields pEC50 of 5.30 to 5.60

Query CCCCCCCOc1ccc(-c2cnc(-c3ccc(C[C@H](NC(=O)c4nnc(C(C)(C)C)s4)C(=O)O)cc3)nc2)cc1 yields pEC50 of 5.60 to 6.10

Query CCCCCCCOc1ccc(-c2cnc(-c3ccc(C[C@@H](NC(=O)c4ccc(C(C)(C)C)s4)C(=O)NCC(=O)O)cc3)nc2)cc1 yields pEC50 of 5.60 to 6.10

Query CC(C)(C)c1ccc(C(=O)N[C@@H](Cc2ccc(-c3noc(-c4ccc(S(N)(=O)=O)cc4)n3)cc2)C(=O)O)cc1 yields pEC50 of 5.30 to 5.60

All figures here come from patent US8778923B2.
